- test_details: ABTS˙+ radical scavenging assay
- test_context: 4.99 µg/mL
Entries whose % of ABTS˙^+ Scavenging is below 60% take met; entries at or above 60% take not met.

- compound: "CCCCn1c(SCC(=O)NN=Cc2ccc(O)c(O)c2O)nc2ccccc2c1=O"
  discrete_label: "not met"
- compound: "C=CCn1c(SCC(=O)NN=C(C)c2ccc(O)cc2O)nc2ccccc2c1=O"
  discrete_label: "met"
- compound: "Cc1c(C)c2c(c(C)c1O)CCC(C)(C(=O)O)O2 (stereo not shown) [Trolox, reference compound]"
  discrete_label: "not met"
- compound: "O=C(CSc1nc2ccccc2c(=O)n1Cc1ccccc1)NN=Cc1ccc(O)c(O)c1O"
  discrete_label: "not met"
- compound: "CCCCn1c(SCC(=O)NN=C(C)c2ccc(O)cc2O)nc2ccccc2c1=O"
  discrete_label: "met"
- compound: "CCn1c(SCC(=O)NN=C(C)c2ccc(O)cc2O)nc2ccccc2c1=O"
  discrete_label: "met"
- compound: "CC(=NNC(=O)CSc1nc2ccccc2c(=O)n1Cc1ccccc1)c1ccc(O)cc1O"
  discrete_label: "met"

---

- Test system: A549 (lung adenocarcinoma) cells
- test_details: Cytotoxicity, Alamar blue assay, A549 cells
- Assay type: cell-based
- test_context: Homo sapiens, 24 h exposure
IC50 strictly less than 30 µg/mL = 1. Otherwise -1.

- compound: "CCCCn1c(SCC(=O)NN=Cc2ccc(O)c(O)c2O)nc2ccccc2c1=O"
  system_tested: "A549 (lung adenocarcinoma) cells"
  discrete_label: -1
- compound: "C=CCn1c(SCC(=O)NN=C(C)c2ccc(O)cc2O)nc2ccccc2c1=O"
  system_tested: "A549 (lung adenocarcinoma) cells"
  discrete_label: -1
- compound: "CCCCn1c(SCC(=O)NN=C(C)c2ccc(O)cc2O)nc2ccccc2c1=O"
  system_tested: "A549 (lung adenocarcinoma) cells"
  discrete_label: -1
- compound: "COc1cccc2c1C(=O)c1c(O)c3c(c(O)c1C2=O)C[C@@](O)(C(=O)CO)C[C@@H]3O[C@H]1C[C@H](N)[C@H](O)[C@H](C)O1 [Doxorubicin, reference compound]"
  system_tested: "A549 (lung adenocarcinoma) cells"
  discrete_label: 1

---

- test_details: DPPH˙ radical scavenging assay
- test_context: 15 µg/mL

- molecule: "CCCCn1c(SCC(=O)NN=C(C)c2ccc(O)cc2O)nc2ccccc2c1=O [Compound 6d]"
  % of DPPH˙ Scavenging: "13.87%"
- molecule: "CCn1c(SCC(=O)NN=C(C)c2ccc(O)cc2O)nc2ccccc2c1=O [Compound 6c]"
  % of DPPH˙ Scavenging: "14.89%"
- molecule: "CC(=NNC(=O)CSc1nc2ccccc2c(=O)n1Cc1ccccc1)c1ccc(O)cc1O [Compound 6b]"
  % of DPPH˙ Scavenging: "11.59%"
- molecule: "C=CCn1c(SCC(=O)NN=C(C)c2ccc(O)cc2O)nc2ccccc2c1=O [Compound 6a]"
  % of DPPH˙ Scavenging: "21.34%"

---

- Test system: A549 (lung adenocarcinoma) cells
- test_details: Cytotoxicity, Alamar blue assay, A549 cells
- Assay type: cell-based
- test_context: Homo sapiens, 24 h exposure
- Experimental: Normal human foreskin (BJ) fibroblasts and two types of cancer cells, namely A549 (lung adenocarcinoma) and LNCaP (prostate carcinoma) purchased from American Type Culture Collection (Manassas, VA, USA), were used in the experiments. […] In 100 µL in 96-well plates, a number of 30,000 LNCaP cells, 15,000 A549 cells, and 7500 normal (BJ) cells were seeded. […] Their viability was evaluated using Alamar blue (AB) assay as previously described. […]

- compound: "CCn1c(SCC(=O)NN=C(C)c2ccc(O)cc2O)nc2ccccc2c1=O [Compound 6c]"
  censoring_qualifier: ">"
  IC50, µg/mL: 100
- compound: "O=C(CSc1nc2ccccc2c(=O)n1Cc1ccccc1)NN=Cc1ccc(O)c(O)c1O [Compound 5b]"
  censoring_qualifier: "="
  IC50, µg/mL: 69.5
- compound: "CC(=NNC(=O)CSc1nc2ccccc2c(=O)n1Cc1ccccc1)c1ccc(O)cc1O [Compound 6b]"
  censoring_qualifier: "="
  IC50, µg/mL: 42.2
- compound: "CCn1c(SCC(=O)NN=Cc2ccc(O)c(O)c2O)nc2ccccc2c1=O [Compound 5c]"
  censoring_qualifier: "="
  IC50, µg/mL: 49.1

---

- test_details: Cupric reducing antioxidant capacity (CUPRAC) assay
- Design: concentration or dose not given beside the values
- test_context: relative to Trolox
Some molecules, each annotated with its measured CUPRAC, % of Activity of Trolox.

- line_notation: "CCCCn1c(SCC(=O)NN=Cc2ccc(O)c(O)c2O)nc2ccccc2c1=O"
  CUPRAC, % of Activity of Trolox: "106.43%"
- line_notation: "CCn1c(SCC(=O)NN=Cc2ccc(O)c(O)c2O)nc2ccccc2c1=O"
  CUPRAC, % of Activity of Trolox: "110.95%"
- line_notation: "CC(=NNC(=O)CSc1nc2ccccc2c(=O)n1Cc1ccccc1)c1ccc(O)cc1O"
  CUPRAC, % of Activity of Trolox: "22.63%"
- line_notation: "C=CCn1c(SCC(=O)NN=C(C)c2ccc(O)cc2O)nc2ccccc2c1=O"
  CUPRAC, % of Activity of Trolox: "12.83%"

---

- test_details: Phosphomolybdate assay for total antioxidant capacity (TAC)
- Design: concentration or dose not given beside the values
- test_context: relative to Trolox
# maps each entry to its TAC, % of Activity of Trolox

- compound: "C=CCn1c(SCC(=O)NN=C(C)c2ccc(O)cc2O)nc2ccccc2c1=O [Compound 6a]"
  endpoint_unit: "%"
  TAC, % of Activity of Trolox: 94.38
- compound: "CCCCn1c(SCC(=O)NN=C(C)c2ccc(O)cc2O)nc2ccccc2c1=O [Compound 6d]"
  endpoint_unit: "%"
  TAC, % of Activity of Trolox: 76.63
- compound: "C=CCn1c(SCC(=O)NN=Cc2ccc(O)c(O)c2O)nc2ccccc2c1=O [Compound 5a]"
  endpoint_unit: "%"
  TAC, % of Activity of Trolox: 176.42
- compound: "CCCCn1c(SCC(=O)NN=Cc2ccc(O)c(O)c2O)nc2ccccc2c1=O [Compound 5d]"
  endpoint_unit: "%"
  TAC, % of Activity of Trolox: 117.87
- compound: "CCn1c(SCC(=O)NN=C(C)c2ccc(O)cc2O)nc2ccccc2c1=O [Compound 6c]"
  endpoint_unit: "%"
  TAC, % of Activity of Trolox: 110.05
- compound: "CCn1c(SCC(=O)NN=Cc2ccc(O)c(O)c2O)nc2ccccc2c1=O [Compound 5c]"
  endpoint_unit: "%"
  TAC, % of Activity of Trolox: 163.49
- compound: "O=C(CSc1nc2ccccc2c(=O)n1Cc1ccccc1)NN=Cc1ccc(O)c(O)c1O [Compound 5b]"
  endpoint_unit: "%"
  TAC, % of Activity of Trolox: 156.96
- compound: "CC(=NNC(=O)CSc1nc2ccccc2c(=O)n1Cc1ccccc1)c1ccc(O)cc1O [Compound 6b]"
  endpoint_unit: "%"
  TAC, % of Activity of Trolox: 101.03

---

- test_details: DPPH˙ radical scavenging assay
- test_context: 5 µg/mL
Please respond with yes (1) when measured % of DPPH˙ Scavenging is strictly beneath 60%, and with no (0) in all other cases.

- compound: "CCn1c(SCC(=O)NN=Cc2ccc(O)c(O)c2O)nc2ccccc2c1=O"
  discrete_label: "no (0)"
- compound: "O=C1O[C@H]([C@@H](O)CO)C(O)=C1O [Ascorbic acid, reference compound]"
  discrete_label: "no (0)"
- compound: "C=CCn1c(SCC(=O)NN=Cc2ccc(O)c(O)c2O)nc2ccccc2c1=O"
  discrete_label: "no (0)"
- compound: "CCCCn1c(SCC(=O)NN=Cc2ccc(O)c(O)c2O)nc2ccccc2c1=O"
  discrete_label: "no (0)"
- compound: "Cc1c(C)c2c(c(C)c1O)CCC(C)(C(=O)O)O2 (stereo not shown) [Trolox, reference compound]"
  discrete_label: "yes (1)"
- compound: "O=C(CSc1nc2ccccc2c(=O)n1Cc1ccccc1)NN=Cc1ccc(O)c(O)c1O"
  discrete_label: "yes (1)"

---

Let's look at some compounds and their measured CUPRAC, % of Activity of Trolox.
- test_details: Cupric reducing antioxidant capacity (CUPRAC) assay
- Set-up: concentration or dose not given beside the values
- test_context: relative to Trolox
measured_attribute: CUPRAC, % of Activity of Trolox (%)

- compound: "CCCCn1c(SCC(=O)NN=C(C)c2ccc(O)cc2O)nc2ccccc2c1=O [Compound 6d]"
  measured_attribute: "CUPRAC, % of Activity of Trolox"
  reported_measurement: 11.25
- compound: "O=C(CSc1nc2ccccc2c(=O)n1Cc1ccccc1)NN=Cc1ccc(O)c(O)c1O [Compound 5b]"
  measured_attribute: "CUPRAC, % of Activity of Trolox"
  reported_measurement: 92.75
- compound: "C=CCn1c(SCC(=O)NN=Cc2ccc(O)c(O)c2O)nc2ccccc2c1=O [Compound 5a]"
  measured_attribute: "CUPRAC, % of Activity of Trolox"
  reported_measurement: 126.56
- compound: "CCn1c(SCC(=O)NN=C(C)c2ccc(O)cc2O)nc2ccccc2c1=O [Compound 6c]"
  measured_attribute: "CUPRAC, % of Activity of Trolox"
  reported_measurement: 29.09
